# Experimental Target: Nox2 (Homo sapiens)
# Construct: expressed in transfected cells
# Test Name: ROS (H2O2) generation in whole COS-Nox2 cells, Amplex Red assay
# Assay type: cell-based
# Test Settings: whole COS-Nox2 cells stimulated with 5 μM PMA; Amplex Red
# Method: All cell culture reagents were obtained from Invitrogen, unless indicated. […] H2O2 production was quantified in intact COS-Nox4 cells by Amplex® Red. […] Fluorescence measurements were made using a Biotek Synergy 4 Hybrid Multi-Mode Microplate Reader with a 530/25-excitation and a 590/35-emission filter. The reaction was monitored at 37° C. for 1 h. […] The rate of H2O2 production in this case was calculated as RFU/min after the subtraction of the equivalent value given by non-stimulated cells. […]
pIC50: −log10 of the molar value.

# Compound, Limit Sign, pIC50
records = [
    ("C=C(C)CC1C2c3c(Br)cccc3C(CC2(C)C)N1S(C)(=O)=O (racemic) [Compound 14a]", "=", 4.57),
    ("C=C(C)CC1C2c3c(-c4ccc(Cl)c(Cl)c4)cccc3C(CC2(C)C)N1CCCCC (racemic) [Compound 12c]", "=", 4.10),
    ("C=C(C)CC1C2c3c(Br)cccc3C(CC2(C)C)N1Cc1cccs1 (racemic) [Compound 11h]", "=", 4.49),
    ("C=C(C)CC1C2c3c(Br)cccc3C(CC2(C)C)N1CCCCC (racemic) [Compound 11g]", "=", 4.70),
    ("C=C(C)CC1C2c3c(-c4ccc(Cl)c(Cl)c4)cccc3C(CC2(C)C)N1Cc1ccc2c(c1)OCO2 (racemic) [Compound 12b]", "<", 4.00),
    ("C=C(C)C[C@@H]1N[C@H]2CC(C)(C)[C@@H]1c1c(Br)ccc(Br)c12", "=", 4.60),
    ("C=C(C)CC1NC2CC(C)(C)C1c1ccccc12 (racemic)", "<", 4.00),
    ("CC(C)CC1NC2CC(C)(C)C1c1c(Br)cccc12 (racemic)", "=", 4.11),
    ("C=C(C)CC1NC2CC(C)(C)C1c1c(-c3ccc(Cl)c(Cl)c3)cccc12 (racemic) [Compound 12a]", "=", 4.19),
]

###

# Experimental Target: Nox4 (Homo sapiens, UniProt Q9NPH5)
# Construct: Plasmids encoding full-length human cDNAs for Nox1 (pcDNA3.1-hNox1), NOXO1 (pcDNA3.1-hNOXO1), NOXA1 (pCMVsport 6-hNOXA1), p47phox (pCMV-Tag4A-hp47) and Nox4 (pcDNA3-hNox4); expressed in transfected cells; host or cells: COS-22 (COS-7 stably expressing human p22phox), transient transfection with pcDNA3.1/Hygro-hNox4
# Sequence (Q9NPH5 1-578): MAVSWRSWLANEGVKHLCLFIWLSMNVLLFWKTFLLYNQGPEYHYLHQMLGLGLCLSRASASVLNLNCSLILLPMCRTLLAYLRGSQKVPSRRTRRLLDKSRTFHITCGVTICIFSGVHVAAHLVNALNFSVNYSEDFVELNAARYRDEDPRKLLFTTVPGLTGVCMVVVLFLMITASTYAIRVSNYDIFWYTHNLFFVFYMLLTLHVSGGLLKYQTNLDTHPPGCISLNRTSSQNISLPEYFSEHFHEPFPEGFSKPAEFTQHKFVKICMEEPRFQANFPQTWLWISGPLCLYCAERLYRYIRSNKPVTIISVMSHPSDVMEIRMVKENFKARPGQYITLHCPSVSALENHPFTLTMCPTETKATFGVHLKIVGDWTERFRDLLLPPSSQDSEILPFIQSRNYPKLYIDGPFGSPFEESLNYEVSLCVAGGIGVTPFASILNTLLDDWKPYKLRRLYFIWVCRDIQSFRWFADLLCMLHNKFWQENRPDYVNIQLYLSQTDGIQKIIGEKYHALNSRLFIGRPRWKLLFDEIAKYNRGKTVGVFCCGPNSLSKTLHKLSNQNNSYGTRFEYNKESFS
# Sequence (P13498 2-195 partner limits assumed): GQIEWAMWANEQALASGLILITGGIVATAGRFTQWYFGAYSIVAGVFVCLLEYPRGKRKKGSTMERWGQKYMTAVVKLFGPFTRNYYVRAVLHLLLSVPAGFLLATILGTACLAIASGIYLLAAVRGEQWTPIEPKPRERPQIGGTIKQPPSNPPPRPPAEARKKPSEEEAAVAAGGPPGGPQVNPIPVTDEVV
# Test Name: Constitutive Nox4 activity in transiently transfected COS-Nox4 cells, Amplex Red assay
# Type: cell-based
# Test Settings: COS-Nox4 cells

# Compound, Nox4 inhibitory activity
data = [
    ("C=C(C)CC1C2c3c(Br)cccc3C(CC2(C)C)N1CCCCC (racemic) [Compound 11g]", "virtually no effect"),
    ("C=C(C)CC1NC2CC(C)(C)C1c1ccccc12 (racemic)", "inactive"),
    ("C=C(C)CC1C2c3c(Br)cccc3C(CC2(C)C)N1Cc1cccs1 (racemic) [Compound 11h]", "virtually no effect"),
    ("C=C(C)CC1NC2CC(C)(C)C1c1c(Br)cccc12 (racemic)", "inactive"),
]

###

# Experimental Target: Nox2 (Homo sapiens)
# Construct: expressed in transfected cells
# Sequence (P04839 2-570 limits assumed): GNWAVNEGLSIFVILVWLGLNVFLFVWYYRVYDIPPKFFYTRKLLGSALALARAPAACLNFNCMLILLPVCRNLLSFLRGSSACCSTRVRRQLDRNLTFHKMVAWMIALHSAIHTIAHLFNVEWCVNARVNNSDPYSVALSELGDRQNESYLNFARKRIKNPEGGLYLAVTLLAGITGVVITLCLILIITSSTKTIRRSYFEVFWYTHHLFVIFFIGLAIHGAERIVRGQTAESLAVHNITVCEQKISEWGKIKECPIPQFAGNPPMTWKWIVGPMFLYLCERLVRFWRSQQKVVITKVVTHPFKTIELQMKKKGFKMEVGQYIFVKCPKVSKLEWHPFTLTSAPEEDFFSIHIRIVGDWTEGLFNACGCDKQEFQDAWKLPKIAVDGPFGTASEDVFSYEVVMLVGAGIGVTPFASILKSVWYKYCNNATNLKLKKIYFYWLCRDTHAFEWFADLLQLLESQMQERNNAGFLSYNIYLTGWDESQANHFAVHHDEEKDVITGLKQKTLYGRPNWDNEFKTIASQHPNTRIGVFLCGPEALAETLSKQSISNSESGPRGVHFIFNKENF
# Test Name: ROS (superoxide) generation in whole COS-Nox2 cells, L-012 chemiluminescence
# Type: cell-based
# Test Settings: whole COS-Nox2 cells stimulated with 5 μM PMA

# Molecule, Limit Sign, IC50 / µM
rows = [
    ("C=C(C)CC1C2c3c(-c4ccc(Cl)c(Cl)c4)cccc3C(CC2(C)C)N1CCCCC (racemic) [Compound 12c]", ">", 100),
    ("C=C(C)CC1C2c3c(Br)cccc3C(CC2(C)C)N1Cc1cc(C)on1 (racemic) [Compound 11e]", "=", 48),
    ("C=C(C)CC1C2c3c(Br)cccc3C(CC2(C)C)N1Cc1ccnc2ccccc12 (racemic) [Compound 11b]", ">", 100),
    ("C=C(C)CC1NC2CC(C)(C)C1c1ccccc12 (racemic)", ">", 100),
    ("C=C(C)CC1C2c3c(Br)cccc3C(CC2(C)C)N1Cc1cccs1 (racemic) [Compound 11h]", "=", 38),
    ("C=C(C)CC1C2c3c(Br)cccc3C(CC2(C)C)N1S(=O)(=O)c1ccc(F)cc1 (racemic) [Compound 14b]", ">", 100),
    ("CC(C)CC1NC2CC(C)(C)C1c1c(Br)cccc12 (racemic)", "=", 31),
]

###

# Experimental Target: Nox5 (Homo sapiens)
# Sequence (Q96PH1 19-737 isoform Q96PH1-3 limits assumed): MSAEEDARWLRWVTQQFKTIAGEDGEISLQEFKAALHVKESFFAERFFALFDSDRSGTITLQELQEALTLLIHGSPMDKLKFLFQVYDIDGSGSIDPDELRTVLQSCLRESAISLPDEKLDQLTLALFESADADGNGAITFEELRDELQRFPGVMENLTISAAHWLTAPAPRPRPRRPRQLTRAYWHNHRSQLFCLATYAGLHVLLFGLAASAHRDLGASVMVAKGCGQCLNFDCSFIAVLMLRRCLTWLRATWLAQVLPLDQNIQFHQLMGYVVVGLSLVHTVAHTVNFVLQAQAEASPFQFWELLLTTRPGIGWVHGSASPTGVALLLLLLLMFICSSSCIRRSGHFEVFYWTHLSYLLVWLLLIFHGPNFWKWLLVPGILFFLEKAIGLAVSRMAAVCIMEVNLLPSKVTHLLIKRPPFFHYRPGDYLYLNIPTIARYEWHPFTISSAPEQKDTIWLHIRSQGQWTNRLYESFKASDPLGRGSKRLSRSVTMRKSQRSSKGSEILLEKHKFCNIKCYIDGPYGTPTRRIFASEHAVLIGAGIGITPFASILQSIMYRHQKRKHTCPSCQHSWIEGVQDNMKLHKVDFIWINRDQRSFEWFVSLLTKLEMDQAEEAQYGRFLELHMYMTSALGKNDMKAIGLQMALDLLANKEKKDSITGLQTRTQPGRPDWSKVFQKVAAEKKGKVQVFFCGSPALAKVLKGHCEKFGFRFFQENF
# Test Name: Nox5 activity in HEK-Nox5 cells, L-012 assay
# Test Settings: HEK-Nox5 cells stimulated with 1 μM PMA and 0.5 ionomycin; L-012; read-out: IC50 of ROS generation, Nox5 (L-012 assay)
pIC50: −log10 of the molar value.
# Lookup of reported pIC50 keyed by entry

# Compound, Experimental Target, pIC50
rows = [
    ("C=C(C)CC1C2c3c(-c4ccc(Cl)c(Cl)c4)cccc3C(CC2(C)C)N1CCCCC (racemic) [Compound 12c]", "Nox5 (Homo sapiens)", "< 4.00"),
    ("C=C(C)CC1C2c3c(-c4ccc(Cl)c(Cl)c4)cccc3C(CC2(C)C)N1Cc1ccc2c(c1)OCO2 (racemic) [Compound 12b]", "Nox5 (Homo sapiens)", "< 4.00"),
    ("C=C(C)CC1C2c3c(Br)cccc3C(CC2(C)C)N1Cc1cccs1 (racemic) [Compound 11h]", "Nox5 (Homo sapiens)", "< 4.00"),
]
